Where do these numbers come from? They come from patent US5073563A.

- System name: MAO A (Rattus norvegicus)
- Sequence (P21396 1-526): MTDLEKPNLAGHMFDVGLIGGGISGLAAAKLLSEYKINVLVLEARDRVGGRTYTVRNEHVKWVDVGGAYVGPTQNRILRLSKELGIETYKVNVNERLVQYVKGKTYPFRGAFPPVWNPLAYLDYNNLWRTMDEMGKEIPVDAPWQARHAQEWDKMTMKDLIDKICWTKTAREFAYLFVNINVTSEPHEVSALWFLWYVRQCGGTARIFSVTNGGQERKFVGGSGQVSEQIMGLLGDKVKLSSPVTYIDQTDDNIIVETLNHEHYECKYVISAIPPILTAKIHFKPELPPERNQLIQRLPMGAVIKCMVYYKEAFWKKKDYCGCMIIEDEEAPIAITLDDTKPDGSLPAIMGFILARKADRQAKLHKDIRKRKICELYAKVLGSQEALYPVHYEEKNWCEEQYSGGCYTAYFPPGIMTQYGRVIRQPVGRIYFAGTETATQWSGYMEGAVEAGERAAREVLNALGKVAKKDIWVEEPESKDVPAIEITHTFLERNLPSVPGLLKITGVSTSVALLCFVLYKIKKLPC
Recorded metric: IC50

Record excerpt, results attached:
Compound	IC50
CCOc1nnc(COc2ccc3c(C)c(C)c(=O)oc3c2)s1 [Example 62]	> 10 µM
Cc1c(C)c2ccc(OCc3coc(Cc4cccc(Cl)c4)c3)cc2oc1=O [Example 25]	> 10 µM
Cc1cc(COc2ccc3c(C)c(C)c(=O)oc3c2)on1 [Example 3]	1.5 µM

What value of measured IC50 is listed for CC(C)c1cc(COc2ccc3c4c(c(=O)oc3c2)CCCC4)nn1C [Example 55] ?
> 10 µM

Now the same for Cc1c(Cl)c(=O)oc2cc(OCc3csc(C(C)C)n3)c(Cl)cc12 [Example 103]
> 10 µM

Now the same for Cc1c(C)c2ccc(OCc3nc(C4CC4)no3)cc2oc1=O [Example 44]
~7 µM

====

- System name: MAO B (Rattus norvegicus)
- Construct: determined in dilute rat brain homogenate; from tissue; host or cells: rat brain homogenate
- Sequence (P19643 whole entry): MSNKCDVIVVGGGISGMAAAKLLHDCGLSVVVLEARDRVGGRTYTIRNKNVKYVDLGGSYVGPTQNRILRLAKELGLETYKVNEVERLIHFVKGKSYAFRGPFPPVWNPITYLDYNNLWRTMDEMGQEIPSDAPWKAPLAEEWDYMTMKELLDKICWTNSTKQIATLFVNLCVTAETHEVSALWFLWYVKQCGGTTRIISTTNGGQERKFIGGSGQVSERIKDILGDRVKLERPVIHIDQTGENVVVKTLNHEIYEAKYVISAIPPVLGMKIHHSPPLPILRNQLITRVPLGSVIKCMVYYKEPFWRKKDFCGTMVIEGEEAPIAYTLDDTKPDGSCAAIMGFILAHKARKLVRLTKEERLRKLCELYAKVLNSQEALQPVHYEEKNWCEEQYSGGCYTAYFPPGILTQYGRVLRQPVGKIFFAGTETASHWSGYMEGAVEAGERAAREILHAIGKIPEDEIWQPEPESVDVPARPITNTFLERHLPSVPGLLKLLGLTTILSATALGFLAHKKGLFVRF
- Test method notes: MAO B inhibition in dilute rat brain homogenate (14C substrate, 20 min at 37° C)
- Format: biochemical
- Run conditions: quotient of IC50 MAO A and IC50 MAO B (selectivity for MAO B); 20 min
Where a name gives a salt, the structure may show the parent alone.
A collection of compounds and their measured IC50 ratio MAO A / MAO B

Record excerpt, results attached:
Compound	System name	Assay result
Cc1c(Cl)c(=O)oc2cc(OCc3csc(C(C)C)n3)c(Cl)cc12	MAO B (Rattus norvegicus)	> 5500
Cc1c(C)c2ccc(OCc3cc(C4CC4)on3)cc2oc1=O	MAO B (Rattus norvegicus)	~ 8300
Cc1c(C)c2ccc(OCc3cc(C(C)C)no3)cc2oc1=O	MAO B (Rattus norvegicus)	~ 8200

What value of measured IC50 ratio MAO A / MAO B is listed for Cc1c(C)c2ccc(OCc3cc(C4CCCCC4)no3)cc2oc1=O [Example 87] ?
> 700

Now the same for Cc1c(C)c2ccc(OCc3ccc(C(C)(C)C)s3)cc2oc1=O
> 1000

Now the same for Cc1c(C)c2ccc(OCc3cc(C4CCOC4)no3)cc2oc1=O (stereo not shown)
~ 1400

Now the same for Cc1c(C)c2ccc(OCc3ncnn3C(C)C)cc2oc1=O [Example 70, hydrochloride]
> 770

Now the same for Cc1c(C)c2ccc(OCc3cc(C4CC4)no3)cc2oc1=O
> 12500

Now the same for Cc1c(C)c2ccc(OCc3csc(Cc4ccccc4)n3)cc2oc1=O
580

Now the same for Cc1nnc(COc2ccc3c(C)c(C)c(=O)oc3c2)o1
370

Now the same for Cc1ccsc1COc1ccc2c(C)c(C)c(=O)oc2c1
450

Now the same for Cc1c(C)c2ccc(OCc3cc(C4CC4)n(C)n3)cc2oc1=O
> 1100

Now the same for COCc1cc(COc2ccc3c(C)c(C)c(=O)oc3c2)on1
~ 2200

Now the same for Cc1c(C)c2ccc(OCc3cc(C4CCC4)no3)cc2oc1=O
> 13000

Now the same for Cc1c(Cl)c(=O)oc2cc(OCc3csc(C4CC4)n3)c(Cl)cc12
> 4500

Now the same for Cc1c(C)c2ccc(OCc3coc(Cc4ccccc4)c3)cc2oc1=O
> 6250

Now the same for Cc1c(C)c2ccc(OCc3cc(C(C)(C)C)no3)cc2oc1=O
> 11000

Now the same for Cc1nnc(COc2ccc3cc(C)c(=O)oc3c2)s1
> 667

Now the same for Cc1c(C)c2ccc(OCc3cc(C(C)C)n(C)n3)cc2oc1=O
> 4500

Now the same for Cc1nnc(COc2ccc3c(C)c(C)c(=O)oc3c2)s1
1200

Now the same for Cc1c(C)c2ccc(OCc3cc(CC(C)C)no3)cc2oc1=O
~ 4500

Now the same for Cc1nnc(COc2ccc3c(C)c(Cl)c(=O)oc3c2)s1
> 1700
